Tested on: Monocotyledonous and dicotyledonous test plants
Assay: Herbicidal action before emergence of the plants (pre-emergence action)
Type: in vivo
Settings: Cyperus; 2000 g/ha; evaluated after 3 weeks; nine-step scale
Method: Monocotyledonous and dicotyledonous test plants are sown in standard soil in plastic pots. […] After a test period of 3 weeks, the experiment is evaluated with reference to a nine-step scale (1=complete damage, 9=no effect). […]
Please go through the items and note down their pre-emergence action, Cyperus.
Give bare numbers.

Would you please look over these solved cases?
>  <COMPOUND>
Cc1nc(C(F)(F)F)ccc1C(=O)C1=C(O)C(C)(C)CC2(CCC2)C1=O [Compound A2-C147]

>  <RECORDED NUMBER>
2

$$$$
>  <COMPOUND>
Cc1nc(C(F)(F)F)ccc1C(=O)C1=C(O)CCCC1=O [Compound A2-B1]

>  <RECORDED NUMBER>
2

$$$$
>  <COMPOUND>
COC1(C)CCC(=O)C(C(=O)c2ccc(C(F)(F)F)nc2C)=C1O (centres unmarked) [Compound A2-B33]

>  <RECORDED NUMBER>
1

$$$$

Give pre-emergence action, Cyperus for each listed item.
1. C#CCC1CC(C)(C)C(=O)C(C(=O)c2ccc(C(F)(F)F)nc2C)=C1O (centres unmarked) [Compound A2-B1082]
2. Cc1nc(C(F)(F)F)ccc1C(=O)C1=C(O)CC2CCCC2C1=O (centres unmarked) [Compound A2-D36]
3. COC1CCC(=O)C(C(=O)c2ccc(C(F)(F)F)nc2C)=C1O (centres unmarked) [Compound A2-B1068]
4. COC(=O)C1(OC)CCC(=O)C(C(=O)c2ccc(C(F)(F)F)nc2C)=C1O (centres unmarked) [Compound A2-B1067]
5. COCc1nc(C(F)(F)F)ccc1C(=O)C1=C(O)C(C)(C(=O)OC)CCC1=O (centres unmarked) [Compound A8-B34]

Marked response:
1. 2
2. 1
3. 2
4. 2
5. 2
